Assay: qHTS RealTime-Glo MT Cell Viability Assay in HEK293 cells - 40 hour (AID 1224874); further: on the % scale 0 is the no-effect control and ±100 the full control effect; nearly all actives have a fitted effect of over 50% in size
Conditions: RealTime-Glo luminescence; hits give low values
Records with an inconclusive call do not appear.
Each entry below carries its reported max response.
endpoint_label: max response (%)

smiles: Cc1nc2ccccc2s1
endpoint_label: max response
unit_of_measure: %
recorded_result: 2.93
//
smiles: CC(C)CCCCCCOC(=O)CCCCC(=O)OCCCCCCC(C)C
endpoint_label: max response
unit_of_measure: %
recorded_result: 0.314
//
smiles: O=[N+]([O-])c1cccc(S(=O)(=O)NCCNS(=O)(=O)c2cccc([N+](=O)[O-])c2)c1
endpoint_label: max response
unit_of_measure: %
recorded_result: -6.21
//
smiles: CC1(C)O[C@@H]2C[C@H]3[C@@H]4CCC5=CC(=O)C=C[C@]5(C)[C@H]4[C@@H](O)C[C@]3(C)[C@]2(C(=O)CO)O1
endpoint_label: max response
unit_of_measure: %
recorded_result: -1.67
//
smiles: COc1ccccc1N=Nc1c(S(=O)(=O)O)cc2cc(S(=O)(=O)O)cc(NC(C)=O)c2c1O
endpoint_label: max response
unit_of_measure: %
recorded_result: 1.04
